Ref: ChEMBL document CHEMBL3045525

system: Corynespora cassiicola; experiment: Fungicidal activity against Corynespora cassiicola infected in drug-pretreated cucumber two seeded leaves assessed as decrease in disease index at 500 ug/ml (acetone Rvb = 5.23 +/-0.88%); type: functional
Response field label: string, one of class 1 (Efficacy strictly below 30%) or class 0.

- COMPOUND: "O=C(N/N=C/c1ccccc1Cl)c1ccc(-c2ccc(F)cc2)o1"
  TARGET DESC: "Corynespora cassiicola"
  CLASS ASSIGNMENT: "class 1"
- COMPOUND: "O=C(NNC(=O)c1ccc(-c2ccccc2[N+](=O)[O-])o1)c1ccc(Cl)cc1"
  TARGET DESC: "Corynespora cassiicola"
  CLASS ASSIGNMENT: "class 0"
- COMPOUND: "CC(=O)N1N=C(c2ccc(-c3ccccc3Cl)o2)OC1c1ccc(Br)cc1 (stereo not given)"
  TARGET DESC: "Corynespora cassiicola"
  CLASS ASSIGNMENT: "class 0"
- COMPOUND: "CCOc1ccc(C(=O)NNC(=O)c2ccc(-c3ccc([N+](=O)[O-])cc3)o2)cc1"
  TARGET DESC: "Corynespora cassiicola"
  CLASS ASSIGNMENT: "class 0"
- COMPOUND: "O=C(N/N=C/c1ccccc1)c1ccc(-c2ccc(Cl)cc2)o1"
  TARGET DESC: "Corynespora cassiicola"
  CLASS ASSIGNMENT: "class 0"
- COMPOUND: "O=C(N/N=C/c1ccc(Br)cc1)c1ccc(-c2ccccc2Cl)o1"
  TARGET DESC: "Corynespora cassiicola"
  CLASS ASSIGNMENT: "class 1"
- COMPOUND: "O=C(NNC(=O)c1ccc(-c2ccccc2Cl)o1)c1ccc(Br)cc1"
  TARGET DESC: "Corynespora cassiicola"
  CLASS ASSIGNMENT: "class 1"
- COMPOUND: "CCOc1ccc(-c2nnc(-c3ccc(-c4ccccc4[N+](=O)[O-])o3)o2)cc1"
  TARGET DESC: "Corynespora cassiicola"
  CLASS ASSIGNMENT: "class 0"
- COMPOUND: "COc1ccc(C(=O)NNC(=O)c2ccc(-c3ccccc3[N+](=O)[O-])o2)cc1"
  TARGET DESC: "Corynespora cassiicola"
  CLASS ASSIGNMENT: "class 1"
- COMPOUND: "O=C(NNC(=O)c1ccccc1Cl)c1ccc(-c2ccc(F)cc2)o1"
  TARGET DESC: "Corynespora cassiicola"
  CLASS ASSIGNMENT: "class 0"

* * *

tested on: Corynespora cassiicola; assay: Fungicidal activity against Corynespora cassiicola infected in drug-pretreated cucumber two seeded leaves assessed as decrease in disease index at 500 ug/ml (acetone Rvb = 5.23 +/-0.88%); format: functional

- COMPOUND: "CCC(=O)N1N=C(c2ccc(-c3ccccc3Cl)o2)OC1c1ccc(Br)cc1 (stereo unspecified)"
  Efficacy (%): 41.18
- COMPOUND: "CCC(=O)N1N=C(c2ccc(-c3ccc(F)cc3)o2)OC1c1ccccc1Cl (stereo unspecified)"
  Efficacy (%): 46.75
- COMPOUND: "CCOc1ccc(-c2nnc(-c3ccc(-c4ccc([N+](=O)[O-])cc4)o3)o2)cc1"
  Efficacy (%): 25.49
- COMPOUND: "Clc1ccccc1-c1ccc(-c2nnc(-c3ccc(Br)cc3)o2)o1"
  Efficacy (%): 90.59
- COMPOUND: "CC(=O)N1N=C(c2ccc(-c3ccccc3F)o2)OC1c1ccc(Cl)cc1 (stereo unspecified)"
  Efficacy (%): 28.85
- COMPOUND: "Fc1ccc(-c2ccc(-c3nnc(-c4ccccc4Cl)o3)o2)cc1"
  Efficacy (%): 27.94
- COMPOUND: "COc1ccc(-c2nnc(-c3ccc(-c4ccc([N+](=O)[O-])cc4)o3)o2)cc1"
  Efficacy (%): 10.59
- COMPOUND: "CC(=O)N1N=C(c2ccc(-c3ccc(F)cc3)o2)OC1c1ccccc1Cl (stereo unspecified)"
  Efficacy (%): 28.72
- COMPOUND: "CC(=O)N1N=C(c2ccc(-c3ccc(Cl)cc3)o2)OC1c1ccccc1 (stereo unspecified)"
  Efficacy (%): 35.29
- COMPOUND: "Cc1ccc(C(=O)NNC(=O)c2ccc(-c3ccc(Cl)cc3)o2)cc1"
  Efficacy (%): 50.87
- COMPOUND: "O=[N+]([O-])c1ccccc1-c1ccc(-c2nnc(-c3ccc(Cl)cc3)o2)o1"
  Efficacy (%): 15.17
- COMPOUND: "CCOc1ccc(C(=O)NNC(=O)c2ccc(-c3ccccc3[N+](=O)[O-])o2)cc1"
  Efficacy (%): 18.82
- COMPOUND: "COc1ccc(C(=O)NNC(=O)c2ccc(-c3ccc([N+](=O)[O-])cc3)o2)cc1"
  Efficacy (%): 36.36
- COMPOUND: "COc1ccc(-c2nnc(-c3ccc(-c4ccccc4[N+](=O)[O-])o3)o2)cc1"
  Efficacy (%): 48.61
- COMPOUND: "Cc1ccc(-c2nnc(-c3ccc(-c4ccc(Cl)cc4)o3)o2)cc1"
  Efficacy (%): 28.24
- COMPOUND: "O=C(N/N=C/c1ccc(Cl)cc1)c1ccc(-c2ccccc2F)o1"
  Efficacy (%): -3.05
